target: T1, HtrA1 (human, UniProt Q92743 23-480, biotin on lysines (Sulfo-NHS-LC-biotin) for panning and SPR); test: SPR; details: both partners purified
T1 construct: also called HtrA1 FL; human full-length HtrA1
T1 sequence (Q92743 23-480): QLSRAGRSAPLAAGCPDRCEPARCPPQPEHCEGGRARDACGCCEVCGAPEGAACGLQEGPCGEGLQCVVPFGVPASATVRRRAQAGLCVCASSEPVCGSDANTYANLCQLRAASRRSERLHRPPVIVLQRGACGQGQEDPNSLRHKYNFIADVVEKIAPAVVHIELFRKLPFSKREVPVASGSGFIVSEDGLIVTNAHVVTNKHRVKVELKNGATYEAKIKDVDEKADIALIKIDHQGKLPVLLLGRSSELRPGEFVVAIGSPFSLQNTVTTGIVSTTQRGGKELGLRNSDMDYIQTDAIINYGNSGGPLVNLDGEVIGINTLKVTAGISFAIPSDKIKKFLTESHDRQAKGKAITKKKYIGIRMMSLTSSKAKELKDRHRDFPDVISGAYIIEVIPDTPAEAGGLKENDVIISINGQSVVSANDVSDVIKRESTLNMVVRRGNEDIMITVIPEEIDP
Kd strictly under 3 µM means Satisfied; at 3 µM or over means Not satisfied.

A selection of reference data follows.
# binder, label-value
records = [
    ("GCHRPWWQLWGLCKQDSDCLAGCVCGPNGFCG (designed binder) [HtrA1_EET76]", "Not satisfied"),
    ("ACKGVFDACTWKNWRQSRSRECCPNAVCSDKHKWCKWKL (designed binder, Huwentoxin scaffold) [HtrA1_HwTx69]", "Not satisfied"),
    ("ECKGKGAKCSIQWSVYPWKVCCTGSCRSGKC (designed binder, Conotoxin-MVIIA scaffold) [HtrA1_CnTx83]", "Not satisfied"),
    ("WIPCISAALGCSCKNKVCYFLYQICGESCV (designed binder) [HtrA1_CirA38]", "Satisfied"),
]

API: the following record is the query input.
Does this binder meet the criterion Kd < 3 µM? WIPCISAALGCSCKNKVCYIFSKHLCGESCV (designed binder) [HtrA1_CirA65]
Satisfied
